Data origin, for the record: patent US20240002516A1

# kon values compiled below
target: T1, extracellular domain (ECD) of human TrkA protein, N-terminal flag tag and C-terminal His tag (PHA) (human, UniProt P04629 33-423); assay: BLI (ForteBio)
T1 construct: Made in 293-F cells and purified by IMAC; also called TrkA ECD protein; TrkA (ECD); not shown: flag tag at the N-terminus (after the signal peptide); His tag at the C-terminus
T1 sequence (P04629 33-423): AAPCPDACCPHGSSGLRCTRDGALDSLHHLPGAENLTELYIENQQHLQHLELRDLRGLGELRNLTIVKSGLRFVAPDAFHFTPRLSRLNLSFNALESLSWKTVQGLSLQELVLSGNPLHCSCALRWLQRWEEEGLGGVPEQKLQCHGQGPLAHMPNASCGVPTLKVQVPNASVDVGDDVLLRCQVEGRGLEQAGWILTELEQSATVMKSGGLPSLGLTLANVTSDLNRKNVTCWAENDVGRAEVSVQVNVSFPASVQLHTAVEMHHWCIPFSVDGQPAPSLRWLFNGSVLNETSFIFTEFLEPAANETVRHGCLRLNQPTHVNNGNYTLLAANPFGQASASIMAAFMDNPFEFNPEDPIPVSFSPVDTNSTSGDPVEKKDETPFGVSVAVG
Kindly answer with a numeric value in M⁻¹ s⁻¹, unit omitted.

Answered examples (6):
PHD22 (antibody, V domains shown) VH: QVQLVQSGAEVKKPGASVKVSCKASGYTFTEYWMHWVRQAPGQGLEWIGTIYPGNSDTSYAQKFQGRVTLTRDTSTSTAYMELSSLRSEDTAVYYCTRFYFEDWYFDVWGQGTTVTVSS VL: DIQMTQSPSSLSASVGDRVTITCRASSSISWLYWFQQKPGKAPKPLIYYTSTLGSGVPSRFSGSGSGTDYTLTISSLQPEDFATYYCQQWHSYPPTFGGGTKVEIK: 473000
PHD25 (antibody, V domains shown) VH: QVQLVQSGAEVKKPGASVKVSCKASGYTFTTYWMHWVRQAPGQGLEWIGTIYPGNSDTSFAQKFQGRVTLTRDTSTSTAYMELSSLRSEDTAVYYCTRFYFEDWYFDVWGQGTTVTVSS VL: DIQMTQSPSSLSASVGDRVTITCRASSSISWLYWFQQKPGKAPKPLIYYTSTLGSGVPSRFSGSGSGTDYTLTISSLQPEDFATYYCQQWHSYPPTFGGGTKVEIK: 383000
PHD30 (antibody, V domains shown) VH: QVQLVQSGAEVKKPGASVKVSCKASGYTFTEYWMHWVRQAPGQGLEWIGTIYPGNSDSSFAQKFQGRVTLTRDTSTSTAYMELSSLRSEDTAVYYCTRFYYEDWYFDVWGQGTTVTVSS VL: DIQMTQSPSSLSASVGDRVTITCRASSSISYLYWFQQKPGKAPKPLIYRTSSLGSGVPSRFSGSGSGTDYTLTISSLQPEDFATYYCQQYHSYPPTFGGGTKVEIK: 486000
PHD24 (antibody, V domains shown) VH: QVQLVQSGAEVKKPGASVKVSCKASGYTFTTYWMHWVRQAPGQGLEWIGTIYPGNSDTSLAQKFQGRVTLTRDTSTSTAYMELSSLRSEDTAVYYCTRFYFEDWYFDVWGQGTTVTVSS VL: DIQMTQSPSSLSASVGDRVTITCRASSSISWLYWFQQKPGKAPKPLIYYTSTLGSGVPSRFSGSGSGTDYTLTISSLQPEDFATYYCQQWHSYPPTFGGGTKVEIK: 446000
PHD29 (antibody, V domains shown) VH: QVQLVQSGAEVKKPGASVKVSCKASGYTFTTYWMHWVRQAPGQGLEWIGTIYPGNSDTSFAQKFQGRVTLTRDTSTSTAYMELSSLRSEDTAVYYCTRFYFEDWYFDVWGQGTTVTVSS VL: DIQMTQSPSSLSASVGDRVTITCRASSSISWLYWFQQKPGKAPKPLIYYTSSLGSGVPSRFSGSGSGTDYTLTISSLQPEDFATYYCQQWHSYPPTFGGGTKVEIK: 371000
PHD26 (antibody, V domains shown) VH: QVQLVQSGAEVKKPGASVKVSCKASGYTFTEYWMHWVRQAPGQGLEWIGTIYPGNSDTSYAQKFQGRVTLTRDTSTSTAYMELSSLRSEDTAVYYCTRFYFEDWYFDVWGQGTTVTVSS VL: DIQMTQSPSSLSASVGDRVTITCRASSSISWLYWFQQKPGKAPKPLIYYTSSLGSGVPSRFSGSGSGTDYTLTISSLQPEDFATYYCQQWHSYPPTFGGGTKVEIK: 490000

Supply recorded kon for PHD28 (antibody, V domains shown) VH: QVQLVQSGAEVKKPGASVKVSCKASGYTFTTYWMHWVRQAPGQGLEWIGTIYPGNSDTSLAQKFQGRVTLTRDTSTSTAYMELSSLRSEDTAVYYCTRFYFEDWYFDVWGQGTTVTVSS VL: DIQMTQSPSSLSASVGDRVTITCRASSSISWLYWFQQKPGKAPKPLIYYTSSLGSGVPSRFSGSGSGTDYTLTISSLQPEDFATYYCQQWHSYPPTFGGGTKVEIK here.
415000
